- Tested on: HOP-18
- method_notes: NCI tumour cell line growth inhibition, 48 h
Activity calls are given as the source filed them. No stated cut-off is given here; in the data, active = GI50 up to about 1.1 µM and inactive = higher.
# Lookup of reported GI50 keyed by entry

{"columns": ["compound", "target_of_assay", "GI50"],
 "data": [
  ["CCCCCCCSCC1C(=O)C23C(O)C1CCC2C12COC3(O)C(O)C1C(C)(C)CCC2O (stereo not given)", "HOP-18", "12.5 µM (inactive)"],
  ["COc1ccc([C@@H]2CC(=O)NCCCCNCCCN2)cc1", "HOP-18", "> 100 µM (inactive)"],
  ["Cc1c(/N=C\\c2ccc(N(CCC#N)CCC#N)cc2)c(=O)n(-c2ccccc2)n1C", "HOP-18", "25.2 µM (inactive)"],
  ["CC1=C(C(=O)Nc2ccc(Cl)c(Cl)c2)C(c2ccco2)C(C(=O)Nc2ccc(Cl)c(Cl)c2)=C(C)N1", "HOP-18", "12.5 µM (inactive)"],
  ["O=C(OC[C@H]1O[C@@H](OC(=O)c2cc(O)c(O)c(O)c2)[C@H](OC(=O)c2cc(O)c(O)c(O)c2)[C@@H](OC(=O)c2cc(O)c(O)c(O)c2)[C@@H]1OC(=O)c1cc(O)c(O)c(O)c1)c1cc(O)c(O)c(O)c1", "HOP-18", "36.6 µM (inactive)"],
  ["C=CCCCCCCCCCCCC1CCC(CC)N1 (stereo not given)", "HOP-18", "12.6 µM (inactive)"],
  ["Cc1cc(-c2ccccc2)cc2[n+]1CC=C2.[O-][Cl+3]([O-])([O-])[O-]", "HOP-18", "< 0.01 µM (active)"],
  ["COc1cc2c(c(C)c1O)[C@H]1COc3ccccc3[C@H]1O2", "HOP-18", "1.37 µM (inactive)"],
  ["CCCCOC(=O)N[C@H]1CCc2cc(OC)c(OC)c(OC)c2-c2ccc(SC)c(=O)cc21", "HOP-18", "21.4 µM (inactive)"],
  ["Cc1ccc(C)c(N2C(=O)C(=O)C(c3nc4ccccc4s3)/C(=N/NC(=O)NN)C2=O)c1 (stereo not given)", "HOP-18", "> 100 µM (inactive)"]
]}
